TESTED ON: Platelet-activating factor acetylhydrolase IB subunit alpha2 (Homo sapiens) (UniProt P68402)
Sequence (P68402 whole entry, looked up): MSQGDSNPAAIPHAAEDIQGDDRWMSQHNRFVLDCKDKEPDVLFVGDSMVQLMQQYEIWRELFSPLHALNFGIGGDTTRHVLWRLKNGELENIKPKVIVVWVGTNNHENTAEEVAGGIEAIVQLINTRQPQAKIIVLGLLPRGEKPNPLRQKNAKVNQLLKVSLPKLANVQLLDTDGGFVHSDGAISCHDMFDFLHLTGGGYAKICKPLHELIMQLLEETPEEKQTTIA
TEST: inhibition of human PAFAH1B2 catalytic subunit – biochemical, fluorescence polarization, FP-rhodamine probe, triplicate, confirmation (AID 493034);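 note: 0% = enzyme with DMSO and 100% = wells lacking PAFAH1B2 protein; inhibitors lower polarization by leaving the probe unbound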
ASSAY SETUP: recombinant PAFAH1B2, FP-rhodamine probe fluorescence polarization; at 3.39 µM; stronger effect = higher value
In all, about 2,400 compounds went through this assay and about 2,200 (92%) were called active. So high a share suggests a set chosen from earlier hits. The list shows a part of the results.
We begin with a simple list: items and their reported inhibition.
MEASUREMENT NAME: inhibition

chemical_string=C/C(CC(C)(C)C1CCCCC1)=N\NC(N)=S value_reported="30.1% (active)"
chemical_string=O=C(/C=C/c1ccc(F)cc1)NC(=S)NNC(=O)[C@H]1C[C@@H]1c1ccccc1 value_reported="47.2% (active)"
chemical_string=CCc1ccc2nc3sc(C(=O)Nc4nnc(CC)s4)c(N)c3cc2c1 value_reported="19.1% (inactive)"
chemical_string=Clc1ccc(OCCSCc2nc3ccccc3[nH]2)cc1 value_reported="22.6% (inactive)"
chemical_string=C[C@H](CO)N1C[C@H](C)[C@@H](CN(C)C(=O)Nc2ccccc2)Oc2c(NC(=O)Nc3ccc(C(F)(F)F)cc3)cccc2C1=O value_reported="23.4% (inactive)"
chemical_string=Cc1ccc(COc2ccc(/C=N/O)cc2)cc1 value_reported="22.1% (inactive)"
chemical_string=COc1ccc([N+](=O)[O-])cc1N(CC(=O)NCCSc1ccc(C)cc1)S(C)(=O)=O value_reported="22.5% (inactive)"
chemical_string=COc1ccc(N2CCN(C(=O)CCNC(=O)c3ccc(C(C)(C)C)cc3)CC2)cc1 value_reported="62.3% (active)"
chemical_string=C[C@@H]1CN([C@H](C)CO)C(=O)c2cccc(NC(=O)NC3CCCCC3)c2O[C@@H]1CN(C)C(=O)Nc1ccc(C(F)(F)F)cc1 value_reported="55.7% (active)"

---

We begin with a simple list: items and their reported inhibition.
TESTED ON: Platelet-activating factor acetylhydrolase IB subunit alpha2 (Homo sapiens)
TEST: inhibition of human PAFAH1B2 catalytic subunit – biochemical, fluorescence polarization, FP-rhodamine probe, triplicate, confirmation (AID 493034);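 note: 0% = enzyme with DMSO and 100% = wells lacking PAFAH1B2 protein; inhibitors lower polarization by leaving the probe unbound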
ASSAY SETUP: recombinant PAFAH1B2, FP-rhodamine probe fluorescence polarization; at 3.39 µM; stronger effect = higher value
In all, about 2,400 compounds went through this assay and about 2,200 (92%) were called active. The set was probably picked from earlier hits. This is one part of the list.
MEASUREMENT NAME: inhibition (%)

compound=C=C1C(=O)[C@@]23[C@H](O)C[C@@H]4C(C)(C)CC[C@H](O)[C@@]4(C)[C@@H]2CC[C@@H]1[C@H]3O value_reported=84.8
compound=Cc1ccc([N+](=O)[O-])c(-c2n[nH]c(=S)n2-c2cccc(Cl)c2)c1 value_reported=24
compound=Cc1ccc(SCc2[nH]nc3c2C2(CCSCC2)C(C#N)=C(N)O3)cc1 value_reported=32.9
compound=Cc1nc(N)nc(N)c1/C=C/C(C)(C)c1ccc(Cl)cc1 value_reported=66.2
compound="O=C(O)CN1C(=O)C2C3CC(C2C1=O)C1C(c2ccc(Cl)cc2)c2sc(=O)[nH]c2SC31 (centres undefined)" value_reported=37.1
compound=C=C1C(=O)[C@@]23[C@H](O)C[C@@H]4C(C)(C)CC[C@H](O)[C@]4(C)[C@@H]2C[C@H](O)[C@@H]1[C@H]3O value_reported=69.2
compound="CCCCNC(=O)Oc1ccc(C(=O)N2c3ccccc3NC(=O)C2C)cc1 (centres undefined)" value_reported=41.2
compound="C/C(=N\\O)C1/C(=N/O)CC2C1C2(C)C (centres undefined)" value_reported=31.7
compound="O=C(O)CN1C(=O)C2C3CC(C2C1=O)C1C(c2ccc(F)cc2)c2sc(=O)[nH]c2SC31 (centres undefined)" value_reported=54.6
